assay: PAMPA permeability assay; assay type: in vitro ADME; conditions: pH 7.4, PAMPA, PBS pH 7.4, 100 μM, zolpidem tested as tartrate, read-out: Permeability Pe ± SD
For each record, write down the corresponding Papp at 5 h, 100 μM.
Answers are plain numbers, in ×10⁻⁶ cm/s.

>>> endpoint_result("Cc1ccc2nc(-c3ccc(F)cc3)c(CC(=O)NC3CCNC3)n2c1 (stereo not shown) [Compound 16]")
0.154

--- query ---
// query What value of Papp at 5 h, 100 μM has been reported for the following molecule? Cc1ccc2nc(-c3ccc(F)cc3)c(CC(=O)N3CCNCC3)n2c1 [Compound 5]
// result 3.35
